Source listed as ChEMBL document CHEMBL5523741.

- study_target: Protein cereblon/Tyrosine-protein kinase Lck (Homo sapiens, UniProt P06239+Q96SW2)
- Sequence (P06239 2-509 limits assumed): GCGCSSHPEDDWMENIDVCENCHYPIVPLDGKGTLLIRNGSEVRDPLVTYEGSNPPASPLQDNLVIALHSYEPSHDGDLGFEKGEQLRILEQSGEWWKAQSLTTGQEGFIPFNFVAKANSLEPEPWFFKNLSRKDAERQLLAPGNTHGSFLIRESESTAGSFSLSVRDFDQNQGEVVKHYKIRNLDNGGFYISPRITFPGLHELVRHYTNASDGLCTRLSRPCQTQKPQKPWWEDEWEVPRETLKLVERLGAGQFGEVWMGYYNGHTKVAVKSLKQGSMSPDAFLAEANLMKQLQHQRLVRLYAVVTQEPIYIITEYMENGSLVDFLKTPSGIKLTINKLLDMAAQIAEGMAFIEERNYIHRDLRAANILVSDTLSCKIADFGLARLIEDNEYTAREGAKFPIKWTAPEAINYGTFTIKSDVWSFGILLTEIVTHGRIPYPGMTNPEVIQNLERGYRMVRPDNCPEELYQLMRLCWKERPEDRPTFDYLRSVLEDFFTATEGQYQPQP
- Sequence (Q96SW2 whole entry partner): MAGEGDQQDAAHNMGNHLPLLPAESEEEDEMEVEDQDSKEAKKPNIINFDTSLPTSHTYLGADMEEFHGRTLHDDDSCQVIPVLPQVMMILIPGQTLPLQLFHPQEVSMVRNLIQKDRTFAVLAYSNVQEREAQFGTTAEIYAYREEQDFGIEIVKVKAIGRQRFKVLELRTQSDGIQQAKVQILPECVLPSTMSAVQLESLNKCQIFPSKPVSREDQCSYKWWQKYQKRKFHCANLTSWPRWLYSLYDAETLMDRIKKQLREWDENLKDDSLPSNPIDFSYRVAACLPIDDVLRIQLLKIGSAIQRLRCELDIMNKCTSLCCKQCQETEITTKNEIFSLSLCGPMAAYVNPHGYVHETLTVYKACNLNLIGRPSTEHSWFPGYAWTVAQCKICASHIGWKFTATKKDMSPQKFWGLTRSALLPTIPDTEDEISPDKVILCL
- method_notes: PROTAC activity at HiBit-tagged LCK/CRBN in human KOPT-K1 cells assessed as induction of LCK degradation incubated for 6 hrs by Nano-Glo HiBiT assay relative to control
- Format: cell-based
endpoint_name: Emax (%)

The following compounds have reported results that may help.
compound	display_unit	Emax
Cc1nc(Nc2ncc(C(=O)Nc3c(C)cccc3Cl)s2)cc(N2CCN(CCCN3CCN(c4ccc(C5CCC(=O)NC5=O)cc4)CC3)CC2)n1 (stereo not drawn)	%	90
Cc1nc(Nc2ncc(C(=O)Nc3c(C)cccc3Cl)s2)cc(N2CCN(CCCN3CCC4(CC3)CCN(c3ccc(C5CCC(=O)NC5=O)cc3)CC4)CC2)n1 (stereo not drawn)	%	93
Cc1nc(Nc2ncc(C(=O)Nc3c(C)cccc3Cl)s2)cc(N2CCC(CN3CCN(c4ccc(C5CCC(=O)NC5=O)cc4)CC3)CC2)n1 (stereo not drawn)	%	77
Cc1nc(Nc2ncc(C(=O)Nc3c(C)cccc3Cl)s2)cc(N2CCN(CCCC(=O)N3CCN(c4ccc(C5CCC(=O)NC5=O)cc4)CC3)CC2)n1 (stereo not drawn)	%	93
Cc1nc(Nc2ncc(C(=O)Nc3c(C)cccc3Cl)s2)cc(N2CCN(CCCC(=O)N3CCC4(CC3)CCN(c3ccc(C5CCC(=O)NC5=O)cc3)CC4)CC2)n1 (stereo not drawn)	%	86
Cc1nc(Nc2ncc(C(=O)Nc3c(C)cccc3Cl)s2)cc(N2CCN(C(=O)CCCN3CC4CC3CN4c3ccc(C4CCC(=O)NC4=O)cc3)CC2)n1 (stereo not drawn)	%	88
Cc1nc(Nc2ncc(C(=O)Nc3c(C)cccc3Cl)s2)cc(N2CCN(CCCN3CC4CC3CN4c3ccc(C4CCC(=O)NC4=O)cc3)CC2)n1 (stereo not drawn)	%	83
Cc1nc(Nc2ncc(C(=O)Nc3c(C)cccc3Cl)s2)cc(N2CCN(CCCC(=O)N3CCC(CN4CCN(c5ccc(C6CCC(=O)NC6=O)cc5)CC4)CC3)CC2)n1 (stereo not drawn)	%	84

(A) Cc1nc(Nc2ncc(C(=O)Nc3c(C)cccc3Cl)s2)cc(N2CCN(CCCC(=O)N3CC4CC3CN4c3ccc(C4CCC(=O)NC4=O)cc3)CC2)n1 (stereo not drawn)
(B) Cc1nc(Nc2ncc(C(=O)Nc3c(C)cccc3Cl)s2)cc(N2CCN(CCN3CCN(c4ccc(C5CCC(=O)NC5=O)cc4)CC3)CC2)n1 (stereo not drawn)
(Q) Smaller Emax value, A vs B ? Give the chosen item's label as your response.
(A) B
(B: 62%, A: 90%)
